TESTED_TARGET: human NAAA (Homo sapiens, UniProt Q02083)
Sequence (Q02083 126-359 limits assumed): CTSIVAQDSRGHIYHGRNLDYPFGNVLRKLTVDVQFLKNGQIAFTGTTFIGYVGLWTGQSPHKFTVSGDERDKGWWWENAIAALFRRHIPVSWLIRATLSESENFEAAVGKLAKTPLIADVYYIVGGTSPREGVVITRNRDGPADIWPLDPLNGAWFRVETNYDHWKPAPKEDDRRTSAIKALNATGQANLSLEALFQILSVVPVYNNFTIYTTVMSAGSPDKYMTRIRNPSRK
Sequence (Q02083 29-125 limits assumed): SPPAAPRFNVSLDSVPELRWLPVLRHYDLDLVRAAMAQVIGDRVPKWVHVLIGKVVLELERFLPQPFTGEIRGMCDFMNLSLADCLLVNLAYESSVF
ASSAY_EXPLANATION: Fluorogenic h-NAAA assay
Assay type: biochemical
pIC50: −log10 of the molar value.
RECORDED_ENDPOINT: pIC50

> print(dat)
                                   molecule  recorded.endpoint  measured.result
1  O=C(CCCc1ccccc1)N[C@H]1CNC1=O [Compound 11b]              pIC50             4.13

(a) CCCCCCCNC(=O)N[C@H]1CNC1=O [Compound 33, 1–Heptyl–3–[(S)–2–oxoazetidin–3–yl]–urea]
(b) CCCCCCCCC(=O)N[C@@H]1CNC1=O [Compound 12h, N–[(R)–2–Oxoazetidin–3–yl]–nonanamide]
(c) O=C(CCCCc1ccccc1)N[C@H]1CNC1=O [Compound 11c]
QUERY: Your job: order these 3 records by pIC50, ascending. Answer by listing the labels in the requested order.
RESULT: b, c, a
(b: 4.13, c: 4.57, a: 5.24)

---

ASSAY_EXPLANATION: Plasma pharmacokinetics in rats after IV or oral dosing
Format: in vivo
RECORDED_CONDITIONS: rat, po, 10 mg/kg
RECORDED_ENDPOINT: AUC (ng·h/mL)
Give the quantity in ng·h/mL, number only.

QUERY: AUC for CCCCCCCCC(=O)N[C@H]1CNC1=O [Compound 11h, N–[(S)–2–Oxoazetidin–3–yl]–nonanamide] ?
RESULT: 247

---

ASSAY_EXPLANATION: Plasma pharmacokinetics in rats after IV or oral dosing
Assay type: in vivo
RECORDED_CONDITIONS: rat, iv, 3 mg/kg
RECORDED_ENDPOINT: Cmax (ng/mL)
Give the quantity in ng/mL, number only.

QUERY: Cmax for CCCCCCCCC(=O)N[C@H]1CNC1=O [Compound 11h, N–[(S)–2–Oxoazetidin–3–yl]–nonanamide] ?
RESULT: 397

---

Examples of compounds with documented half-life at 2 µM follow.
ASSAY_EXPLANATION: In vitro mouse plasma stability
Type: in vitro ADME

The examples below pair each entry with its known result.
> print(dat)
                                   compound  measured.result
1  O=C(CCc1ccccc1)N[C@H]1CNC1=O [Compound 11a]            > 2 h
2  CCCCCCCCC(=O)N[C@H]1CNC1=O [Compound 11h, N–[(S)–2–Oxoazetidin–3–yl]–nonanamide]           1.72 h

QUERY: half-life at 2 µM for O=C(CCc1ccccc1)N[C@H]1COC1=O [Compound 1, reference compound] ?
RESULT: < 0.0167 h

---

ASSAY_EXPLANATION: Plasma pharmacokinetics in rats after IV or oral dosing
Type: in vivo
RECORDED_CONDITIONS: rat, po, 10 mg/kg
RECORDED_ENDPOINT: Cmax (ng/mL)
Give the quantity in ng/mL, number only.

QUERY: Cmax for CCCCCCCCC(=O)N[C@H]1CNC1=O [Compound 11h, N–[(S)–2–Oxoazetidin–3–yl]–nonanamide] ?
RESULT: 570

---

TESTED_TARGET: UniProt:Q02083
ASSAY_EXPLANATION: Fluorogenic h-NAAA assay
Format: biochemical
pIC50: −log10 of the molar value.
RECORDED_ENDPOINT: pIC50

The examples below pair each entry with its known result.
> print(dat)
                                   compound  recorded.endpoint  measured.result
1  O=C(CCCCCCc1ccccc1)N[C@H]1CNC1=O [Compound 11e]              pIC50             6.22
2  O=C(CCc1ccccc1)N[C@H]1COC1=O [Compound 1, reference compound]              pIC50             5.89

(I) O=C(CCCCCc1ccccc1)N[C@H]1CNC1=O [Compound 11d]
(II) CCCCC/C=C/CC(=O)N[C@H]1CNC1=O [Compound 11i]
QUERY: In terms of reported pIC50, does I or II have the smaller number? Please reply using the label of the selected record.
RESULT: I
(I: 4.92, II: 5.51)
